Data origin, for the record: ChEMBL document CHEMBL1142746

# assaySystem: Cannabinoid receptor 2 (Homo sapiens)
# Sequence (P34972 whole entry): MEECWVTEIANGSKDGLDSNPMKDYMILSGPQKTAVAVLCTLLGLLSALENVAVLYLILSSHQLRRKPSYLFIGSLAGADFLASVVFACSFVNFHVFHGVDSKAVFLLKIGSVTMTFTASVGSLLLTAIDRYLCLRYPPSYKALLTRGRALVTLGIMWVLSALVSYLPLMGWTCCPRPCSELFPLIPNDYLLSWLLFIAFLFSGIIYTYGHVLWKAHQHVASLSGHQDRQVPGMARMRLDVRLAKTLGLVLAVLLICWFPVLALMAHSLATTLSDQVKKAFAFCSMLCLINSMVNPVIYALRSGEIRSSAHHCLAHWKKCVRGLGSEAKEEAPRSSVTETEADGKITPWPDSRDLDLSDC
Below: a set of entries, each annotated with reported pKi.
Units for pKi: none; it is -log10 of a concentration expressed in mol/L.

# count of solved cases: 2
sampleSmiles | pKi
C[C@H](NS(C)(=O)=O)c1ccc(S(=O)(=O)c2ccc(Cl)cc2S(=O)(=O)c2ccc(Cl)cc2)cc1 | 8.00
COc1ccc(S(=O)(=O)c2ccc([C@H](C)NS(C)(=O)=O)cc2)c(S(=O)(=O)c2ccc(Cl)cc2)c1 | 9.05

[ask] Param item = COc1ccc(S(=O)(=O)c2cc(OC)ccc2S(=O)(=O)c2ccc(C(C)(C)NS(C)(=O)=O)cc2)cc1 ; retrieve measured pKi.
[reply] 8.22

[ask] Param item = C[C@H](NS(C)(=O)=O)c1ccc(S(=O)(=O)c2ccccc2S(=O)(=O)c2ccc(Cl)cc2)cc1 ; retrieve measured pKi.
[reply] 7.24

====

This document collects log10(Ki) values reported for Cannabinoid receptor 2 (Homo sapiens).
Hey, these are logged values: log10 of Ki, nM being the unit before logging.

# count of solved cases: 5
sampleSmiles | log10(Ki)
C[C@H](NS(C)(=O)=O)c1ccc(S(=O)(=O)c2ccc(Cl)cc2Oc2ccc(Cl)cc2)cc1 | 2.99
COc1ccc(S(=O)(=O)c2cc(OC)ccc2S(=O)(=O)c2ccc(CNS(C)(=O)=O)cc2)cc1 | 0.11
Cc1ccc(S(=O)(=O)c2ccc([C@H](C)NS(C)(=O)=O)cc2)c(S(=O)(=O)c2ccccc2F)c1 | -0.30
COc1ccc(S(=O)(=O)c2cc(OC)ccc2C(=O)c2ccc([C@H](C)NS(C)(=O)=O)cc2)cc1 | 1.64
C=C(c1ccc([C@H](C)NS(C)(=O)=O)cc1)c1ccc(OC(F)(F)F)cc1S(=O)(=O)c1ccccc1F | 1.93

# ---- query compound ----
[ask] Param item = C[C@H](NS(C)(=O)=O)c1ccc(Cc2ccc(OC(F)(F)F)cc2S(=O)(=O)c2cccc(C(F)(F)F)c2)cc1 ; retrieve measured log10(Ki).
[reply] 1.54
